Please go through the items and note down their pIC50.
# Tested on: TGF-β signaling (TGF-β pSMAD, MPC-11)
# assayMethodText: AlphaScreen SureFire SMAD3 (p-Ser423/425) assay, inhibition of TGF-β signaling
# Type: cell-based
# experimentalContext: Mus musculus, p-SMAD-3 (Ser423/425) in cell lysate after TGF-β stimulation
Answers are plain numbers, as −log10 of the molar value.

Use the examples below as a reference point.
Clc1ccccc1-c1nn2c(c1-c1ccc3ncnn3c1)CCC2 ... 6.02
Fc1ccc(F)c(-c2nn3c(c2-c2ccc4ncsc4c2)CCC3)c1 ... 6.42
Cc1cc(-c2nn3c(c2-c2ccnc4[nH]ccc24)CCC3)ccc1F ... 5.98
Clc1cccc(-c2nn3c(c2-c2ccc4nccnc4c2)CCC3)c1 ... 6.40
Fc1cc(F)c(-c2nn3c(c2-c2ccc4ncccc4c2)CCC3)cc1Cl ... 6.06
FC(F)(F)Oc1cccc(-c2nn3c(c2-c2ccc4sncc4c2)CCC3)c1 ... 6.17
Fc1cc(F)c(-c2nn3c(c2-c2ccc4nccnc4c2)CCC3)cc1Cl ... 6.67
COc1cccc(-c2nn3c(c2-c2ccc4ncnn4c2)CCC3)c1 ... 6.22

Quick batch: pIC50 for everything below.
1. Cc1cc(-c2nn3c(c2-c2ccc4ncsc4c2)CCC3)c(F)cc1F
2. Fc1ccc(Cl)cc1-c1nn2c(c1-c1ccc3ncsc3c1)CCC2
3. Cc1c(F)ccc(-c2nn3c(c2-c2ccc4ncsc4c2)CCC3)c1F
4. Fc1ccc(-c2nn3c(c2-c2ccc4cn[nH]c4c2)CCC3)cc1F
5. COc1cccc(-c2nn3c(c2-c2ccc4nccn4c2)CCC3)c1
6. COc1cccc(-c2nn3c(c2-c2ccc4nccn4c2)OCC3)c1
7. Fc1ccc(-c2nn3c(c2-c2ccc4[nH]ncc4c2)CCC3)cc1F
8. COc1cccc(-c2nn3c(c2-c2ccc4ncsc4c2)CCC3)c1

Found:
1. 6.65
2. 7.38
3. 6.22
4. 5.79
5. 5.98
6. 5.83
7. 6.29
8. 6.58

---

# System: TGF-β signaling (TGF-β pSMAD, MPC-11)
# assayMethodText: AlphaScreen SureFire SMAD3 (p-Ser423/425) assay, inhibition of TGF-β signaling
# Type: cell-based
# experimentalContext: Mus musculus, p-SMAD-3 (Ser423/425) in cell lysate after TGF-β stimulation
experimentalEndpoint: pIC50
Answers are plain numbers, as −log10 of the molar value.

Fc1ccc(-c2nn3c(c2-c2ccc4cn[nH]c4c2)CCC3)cc1Cl [Compound 143] ... 6.29

Quick batch: pIC50 for everything below.
1. Cc1cccc(-c2nn3c(c2-c2ccc4ncsc4c2)OCCC3)c1 [Compound 43]
2. COc1cccc(-c2nn3c(c2-c2ccc4ncn(C)c4c2)OCC3)c1 [Compound 72]
3. FC(F)(F)c1cccc(-c2nn3c(c2-c2ccc4ncccc4c2)CCC3)c1 [Compound 50]
4. Fc1ccc(F)c(-c2nn3c(c2-c2ccc4[nH]ncc4c2)CCC3)c1 [Compound 1]
5. Fc1ccccc1-c1nn2c(c1-c1ccc3nccn3c1)CCC2 [Compound 135]
6. Fc1ccc(-c2nn3c(c2-c2ccc4nccnc4c2)CCC3)cc1 [Compound 53]
7. Fc1ccc(-c2nn3c(c2-c2ccc4nccn4c2)CCC3)c(F)c1Cl [Compound 157]

Found:
6.30
6.18
5.38
5.69
5.67
5.63
6.16

Quick batch: pIC50 for everything below.
1. Fc1cccc(-c2nn3c(c2-c2ccc4cn[nH]c4c2)CCC3)c1 [Compound 78]
2. Fc1ccc(-c2nn3c(c2-c2ccc4ncnn4c2)CCC3)cc1 [Compound 103]
3. Fc1ccc(-c2nn3c(c2-c2ccc4ncnn4c2)CCC3)cc1F [Compound 110]

Found:
1: 5.64; 2: 6.28; 3: 6.23

---

# System: TGF-β signaling (TGF-β pSMAD, MPC-11)
# assayMethodText: AlphaScreen SureFire SMAD3 (p-Ser423/425) assay, inhibition of TGF-β signaling
# Assay type: cell-based
# experimentalContext: Mus musculus, p-SMAD-3 (Ser423/425) in cell lysate after TGF-β stimulation
experimentalEndpoint: IC50

Use the examples below as a reference point.
Fc1cc(F)c(-c2nn3c(c2-c2ccc4[nH]ncc4c2)CCC3)cc1F ... 816 nM
FC(F)(F)c1cccc(-c2nn3c(c2-c2ccc4ncsc4c2)OCC3)c1 ... 787 nM

Attention now turns to another entry.
Lookup: GET /values?readout=IC50&system=TGF-β signaling (TGF-β pSMAD, MPC-11)&item= Cc1cccc(-c2nn3c(c2-c2ccc4nccnc4c2)CCC3)c1
Found: 204 nM

---

# System: TGF-β signaling (TGF-β pSMAD, MPC-11)
# assayMethodText: AlphaScreen SureFire SMAD3 (p-Ser423/425) assay, inhibition of TGF-β signaling
# Type: cell-based
# experimentalContext: Mus musculus, p-SMAD-3 (Ser423/425) in cell lysate after TGF-β stimulation
experimentalEndpoint: IC50 (nM)
One number for each entry, in nM.

Fc1ccc(Cl)cc1-c1nn2c(c1-c1ccc3cn[nH]c3c1)CCC2 [Compound 174] ... 153
Fc1ccc(-c2nn3c(c2-c2ccc4ncsc4c2)CCC3)cc1 [Compound 14] ... 976

Quick batch: IC50 for everything below.
1. FC(F)(F)Oc1cccc(-c2nn3c(c2-c2ccc4cn[nH]c4c2)CCC3)c1 [Compound 123]
2. Fc1c(Cl)cccc1-c1nn2c(c1-c1ccc3ncsc3c1)CCC2 [Compound 140]
3. Fc1ccc(-c2nn3c(c2-c2ccc4ncsc4c2)OCC3)cc1 [Compound 68]

Found:
1. 190
2. 842
3. 1100

Quick batch: IC50 for everything below.
1. Cc1cc(-c2nn3c(c2-c2ccc4nccn4c2)CCC3)c(F)cc1F [Compound 181]
2. Cn1cnc2ccc(-c3c(-c4cccc(C(F)(F)F)c4)nn4c3CCC4)cc21 [Compound 33]
3. Fc1cc(F)c(-c2nn3c(c2-c2ccc4cn[nH]c4c2)CCC3)cc1Cl [Compound 187]
4. Cc1cc(-c2nn3c(c2-c2ccc4nccn4c2)CCC3)ccc1F [Compound 20]
5. Fc1ccccc1-c1nn2c(c1-c1ccc3ncsc3c1)CCC2 [Compound 201]
6. Fc1ccc(F)c(-c2nn3c(c2-c2ccc4ncccc4c2)CCC3)c1 [Compound 196]

Found:
[380, 42.1, 656, 366, 1460, 5260]

---

# System: TGF-β signaling (TGF-β pSMAD, MPC-11)
# assayMethodText: AlphaScreen SureFire SMAD3 (p-Ser423/425) assay, inhibition of TGF-β signaling
# Format: cell-based
# experimentalContext: Mus musculus, p-SMAD-3 (Ser423/425) in cell lysate after TGF-β stimulation
Please go through the items and note down their pIC50.
One number for each entry, as −log10 of the molar value.

Fc1ccc(-c2nn3c(c2-c2ccc4ncnn4c2)CCC3)c(F)c1F ... 6.15
Fc1ccc(-c2nn3c(c2-c2ccc4nccn4c2)CCC3)cc1F ... 6.03
Cc1cccc(-c2nn3c(c2-c2ccc4ncn(C)c4c2)OCCC3)c1 ... 6.72
Cc1cc(-c2nn3c(c2-c2ccc4nccnc4c2)CCC3)ccc1F ... 6.28
FC(F)(F)c1cccc(-c2nn3c(c2-c2ccc4nccn4c2)OCC3)c1 ... 6.34
Fc1ccc(-c2nn3c(c2-c2ccc4ncsc4c2)CCC3)c(F)c1Cl ... 6.26

Attention now turns to another entry.
Lookup: GET /values?readout=pIC50&system=TGF-β signaling (TGF-β pSMAD, MPC-11)&item= COc1ccc(-c2nn3c(c2-c2ccc4nccnc4c2)CCC3)cc1
Found: 5.38
